Recorded measurements of pEC50, one per entry
Tested on: primary human fibroblasts derived from IPF patients (LL29 cells)
protocolSummary: Inhibition of the fibrotic process: αSMA staining in TGF-β1 treated LL29 fibroblasts
Type: cell-based
recordedConditions: Homo sapiens, Fibroblast, 96 h, TGF-β1 20 ng/mL, 4 days, % αSMA positive cells
pEC50: −log10 of the molar value.
quantity: pEC50

compound="O=C(Nc1cncc(-c2cnc3[nH]nc(-c4cc5ccccc5[nH]4)c3c2)c1)C1CCC1 [Compound 247]" quantity=pEC50 measurement=7.17
compound="CN(C)CCNc1cc(F)cc(-c2cccc3[nH]c(-c4n[nH]c5ncc(-c6cncnc6)cc45)cc23)c1 [Compound 449]" quantity=pEC50 measurement=5.94
compound="CN(C)c1cncc(-c2cnc3[nH]nc(-c4cc5c(-c6cc(F)cc(CNS(C)(=O)=O)c6)cccc5[nH]4)c3c2)c1 [Compound 457]" quantity=pEC50 measurement=5.76
compound="Cc1ncc(-c2cnc3[nH]nc(-c4cc5ccccc5[nH]4)c3c2)n1C [Compound 655]" quantity=pEC50 measurement=5.41
compound="Fc1cccc(-c2cccc3[nH]c(-c4n[nH]c5ncc(-c6cncc(OCc7ccccc7)c6)cc45)cc23)c1 [Compound 520]" quantity=pEC50 measurement=5.01
compound="CCNCc1cncc(-c2cnc3[nH]nc(-c4cc5c(N6CCCCC6)cccc5[nH]4)c3c2)c1 [Compound 150]" quantity=pEC50 measurement=5.56
compound="O=C(CC1CCNCC1)Nc1cncc(-c2cnc3[nH]nc(-c4cc5c(-c6ccccn6)cccc5[nH]4)c3c2)c1 [Compound 595]" quantity=pEC50 measurement=5.25
compound="CN(C)CCNc1cc(F)cc(-c2cccc3[nH]c(-c4n[nH]c5ncc(-c6cncc(OC7CCCCC7)c6)cc45)cc23)c1 [Compound 785]" quantity=pEC50 measurement=5.91
